molecular target: 5-hydroxytryptamine receptor 6 (Homo sapiens); assay: Displacement of [3H]lysergic acid diethylamide from human recombinant 5HT6 receptor
measured-quantity: pKi
FYI, pKi means -log10 of a concentration in mol per litre.

The examples below pair each entry with its known result.
compound | pKi
CNc1nn2c(C)cc(C)nc2c1S(=O)(=O)c1ccccc1 | 9.70
CSc1nn2c(C)cc(C)nc2c1S(=O)(=O)c1ccccc1 | 8.70

Quickly give me recorded pKi for Cc1cc(C)n2nc(OCCO)c(S(=O)(=O)c3ccccc3)c2n1
7.65

###

biological target: 5-hydroxytryptamine receptor 6 (Homo sapiens, UniProt P50406); assay: Antagonist activity at human recombinant 5HT6 receptor expressed in HEK293 cells assessed as inhibition of serotonin-induced cAMP production after 2 hrs; format: functional, cell-based
Sequence (P50406 whole entry): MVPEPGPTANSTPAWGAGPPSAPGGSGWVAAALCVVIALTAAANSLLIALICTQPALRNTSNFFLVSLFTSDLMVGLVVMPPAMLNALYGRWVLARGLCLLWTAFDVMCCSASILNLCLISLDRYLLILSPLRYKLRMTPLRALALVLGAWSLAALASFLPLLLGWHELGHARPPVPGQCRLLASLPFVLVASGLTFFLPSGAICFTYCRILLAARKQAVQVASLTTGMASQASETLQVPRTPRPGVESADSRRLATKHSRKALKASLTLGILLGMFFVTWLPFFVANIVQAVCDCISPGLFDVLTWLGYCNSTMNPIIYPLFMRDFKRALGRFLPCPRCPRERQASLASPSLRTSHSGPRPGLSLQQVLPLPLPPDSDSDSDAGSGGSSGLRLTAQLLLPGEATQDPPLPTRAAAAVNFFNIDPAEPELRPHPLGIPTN
measured-quantity: log10 of Ki (log10 of the value in nM)
Scale type: logarithmic (base 10). Underlying Ki unit: nM.

compound | val
Cc1cc(C)n2nc(NCCCN(C)C)c(S(=O)(=O)c3ccccc3)c2n1 | 2.88
Cc1cc(C)n2nc(N3CCNCC3)c(S(=O)(=O)c3ccccc3)c2n1 | 3.14
Cc1cc(C)n2nc(OCCO)c(S(=O)(=O)c3ccccc3)c2n1 | 2.45
Cc1cc(C)n2ncc(S(=O)(=O)c3ccccc3)c2n1 | 2.75

Answer with reported log10 of Ki of Cc1cc(C)n2nc(N(C)C)c(S(=O)(=O)c3ccccc3)c2n1
1.16
